Exercise: for every item that follows, state its recorded GI50 at 48 h.
assay: Growth inhibition of NHDF cells after 48 hrs by SRB assay; format: cell-based; details: human, NHDF cells
Answers are plain numbers, in µM.

> print(dat)
                                   compound       measure  numeric.value
1  CCN1CCN(c2ccc(C(c3ccccc3)C34CC5CC(CC(C5)C3)C4)cc2)CC1 (stereo not drawn)  GI50 at 48 h           7.43
2  CN1CCN(c2ccc(C(c3ccccc3)C34CC5CC(CC(C5)C3)C4)cc2)CC1 (stereo not drawn)  GI50 at 48 h            5.3

Problem: What measured GI50 at 48 h goes with c1ccc(C(c2ccc(N3CCNCC3)cc2)C23CC4CC(CC(C4)C2)C3)cc1 (stereo not drawn) ?
Result: 2.97

---

test system: MIA PaCa-2; test: Growth inhibition of human MIAPaCa2 cells after 48 hrs by SRB assay; type: functional; conditions: MIA PaCa-2, 48 h
Exercise: for every item that follows, state its recorded GI50.
Answers are plain numbers, in µM.

Worked set:
> print(dat)
                                   compound  measure  unit.tag  numeric.value
1  c1ccc(C(c2ccc(N3CCN(C4CCCCC4)CC3)cc2)C23CC4CC(CC(C4)C2)C3)cc1 (centres undefined)     GI50        µM           20.2
2  c1ccc(CN2CCN(c3ccc(C(c4ccccc4)C45CC6CC(CC(C6)C4)C5)cc3)CC2)cc1 (centres undefined)     GI50        µM           14.9
3  Nc1ccn([C@@H]2O[C@H](CO)[C@@H](O)C2(F)F)c(=O)n1 [GEMCITABINE]     GI50        µM           35.8

Could you now consider this next compound?
Problem: What measured GI50 goes with O=c1[nH]cc(F)c(=O)[nH]1 [FLUOROURACIL] ?
Result: 30
